Every entry's value here was drawn from paper PMC11785640.

SYSTEM_TESTED: AChE (Electrophorus electricus, UniProt O42275)
Sequence (O42275 24-633): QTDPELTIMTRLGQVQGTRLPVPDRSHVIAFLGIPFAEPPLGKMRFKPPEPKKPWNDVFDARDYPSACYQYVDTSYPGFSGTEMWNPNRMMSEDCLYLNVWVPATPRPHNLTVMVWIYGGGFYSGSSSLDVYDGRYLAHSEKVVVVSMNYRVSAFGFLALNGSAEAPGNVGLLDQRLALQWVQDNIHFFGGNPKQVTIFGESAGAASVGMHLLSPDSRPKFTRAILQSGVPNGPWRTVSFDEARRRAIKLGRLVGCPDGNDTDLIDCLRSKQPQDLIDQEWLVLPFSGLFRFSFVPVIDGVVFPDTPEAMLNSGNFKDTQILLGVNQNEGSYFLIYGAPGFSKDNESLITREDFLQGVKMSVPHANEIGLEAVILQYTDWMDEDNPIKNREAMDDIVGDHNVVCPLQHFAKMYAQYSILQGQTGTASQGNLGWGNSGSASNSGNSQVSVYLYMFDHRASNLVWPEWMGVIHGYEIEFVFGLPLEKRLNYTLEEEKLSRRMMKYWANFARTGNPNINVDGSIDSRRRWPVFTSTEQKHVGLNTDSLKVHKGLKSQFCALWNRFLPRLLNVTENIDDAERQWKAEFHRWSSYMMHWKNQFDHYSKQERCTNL
TEST_METHOD_NOTES: biochemical
Assay type: biochemical
CONDITION_DESCRIPTION: from Lineweaver-Burk graphs; mean ± SD, triplicate
Note to self: use TRUE only for Ki readings below 20 nM; a reading exactly at 20 nM still gets FALSE.

Q. Given the entry O=C(c1ccc2nc(-c3ccc[nH]3)oc2c1)N1CCCC1 , would its reported Ki be below 20 nM?
A. TRUE

***
Q. Given the entry CN(C)C(=O)c1ccc2nc(-c3ccncc3)oc2c1 , would its reported Ki be below 20 nM?
A. FALSE

Q. Given the entry O=C(c1ccc2nc(-c3ccncc3)oc2c1)N1CCCCC1 , would its reported Ki be below 20 nM?
A. FALSE

Q. Given the entry O=C(c1ccc2nc(-c3cccs3)oc2c1)N1CCCC1 , would its reported Ki be below 20 nM?
A. FALSE

---

List of IC50 values.
SYSTEM_TESTED: BChE (Equus caballus, UniProt P81908)
Sequence (P81908 whole entry): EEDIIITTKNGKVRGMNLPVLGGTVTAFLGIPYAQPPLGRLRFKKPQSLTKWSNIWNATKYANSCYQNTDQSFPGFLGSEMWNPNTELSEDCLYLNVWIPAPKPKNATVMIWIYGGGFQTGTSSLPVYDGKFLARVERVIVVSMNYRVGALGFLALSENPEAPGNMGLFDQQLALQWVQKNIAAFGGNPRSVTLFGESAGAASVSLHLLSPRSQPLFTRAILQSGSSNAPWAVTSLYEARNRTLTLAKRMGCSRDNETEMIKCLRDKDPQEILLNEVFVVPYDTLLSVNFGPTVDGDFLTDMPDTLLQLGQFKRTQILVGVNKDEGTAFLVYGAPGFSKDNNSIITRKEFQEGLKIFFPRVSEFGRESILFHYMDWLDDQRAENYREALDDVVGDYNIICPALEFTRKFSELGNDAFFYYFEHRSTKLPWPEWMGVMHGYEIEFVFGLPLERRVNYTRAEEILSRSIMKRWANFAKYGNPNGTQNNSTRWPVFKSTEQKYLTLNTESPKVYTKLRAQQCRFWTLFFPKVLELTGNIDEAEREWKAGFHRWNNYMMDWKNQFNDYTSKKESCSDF
TEST_METHOD_NOTES: biochemical
Format: biochemical
Report the value in nM with no unit label.

Q. If you can, please state the reported IC50 value of O=C(c1ccc2nc(-c3ccco3)oc2c1)N1CCOCC1 [Compound 42] .
A. 58.7

Q. If you can, please state the reported IC50 value of CCN(CC)C(=O)c1ccc2nc(-c3ccco3)oc2c1 [Compound 38] .
A. 70.4

***
Q. If you can, please state the reported IC50 value of O=C(c1ccc2nc(-c3cccc4ccccc34)oc2c1)N1CCCCC1 [Compound 23] .
A. 98.3

---

SYSTEM_TESTED: UniProt:P81908
TEST_METHOD_NOTES: biochemical
Assay type: biochemical
CONDITION_DESCRIPTION: from Lineweaver-Burk graphs; mean ± SD, triplicate
Note: every record was labeled by where its Ki sits among I = under 50 nM, II = from 50 nM up to 70 nM, III = 70 nM and over

Field: example entries. Status: answers known.
Q. Using the reported Ki, which band applies to CN(C)C(=O)c1ccc2nc(-c3ccncc3)oc2c1 ?
A. II

Q. Using the reported Ki, which band applies to CN(C)C(=O)c1ccc2nc(-c3cccs3)oc2c1 ?
A. III

Q. Using the reported Ki, which band applies to CCN(CC)C(=O)c1ccc2nc(-c3ccco3)oc2c1 ?
A. II

Q. Using the reported Ki, which band applies to O=C(c1ccc2nc(-c3ccncc3)oc2c1)N1CCCC1 ?
A. II

Q. Using the reported Ki, which band applies to O=C(c1ccc2nc(-c3cccc4ccccc34)oc2c1)N1CCCC1 ?
A. III

Q. Using the reported Ki, which band applies to CN(C)C(=O)c1ccc2nc(-c3ccc(-c4ccccc4)cc3)oc2c1 ?
A. II

Q. Using the reported Ki, which band applies to O=C(c1ccc2nc(-c3ccccc3)oc2c1)N1CCCC1 ?
A. I

Q. Using the reported Ki, which band applies to O=C(c1ccc2nc(-c3cccs3)oc2c1)N1CCCCC1 ?
A. I

***
Q. Using the reported Ki, which band applies to CCCN(CCC)C(=O)c1ccc2nc(-c3cccc4ccccc34)oc2c1 ?
A. III

Q. Using the reported Ki, which band applies to CCCN(CCC)C(=O)c1ccc2nc(-c3ccc[nH]3)oc2c1 ?
A. I

Q. Using the reported Ki, which band applies to O=C(c1ccc2nc(-c3ccncc3)oc2c1)N1CCOCC1 ?
A. I

Q. Using the reported Ki, which band applies to O=C(c1ccc2nc(-c3ccco3)oc2c1)N1CCCC1 ?
A. III

Q. Using the reported Ki, which band applies to CN(C)C(=O)c1ccc2nc(-c3ccc[nH]3)oc2c1 ?
A. I

Q. Using the reported Ki, which band applies to CN(C)C(=O)c1ccc2nc(-c3ccco3)oc2c1 ?
A. III

Q. Using the reported Ki, which band applies to O=C(c1ccc2nc(-c3ccc[nH]3)oc2c1)N1CCCC1 ?
A. I

Q. Using the reported Ki, which band applies to CCN(CC)C(=O)c1ccc2nc(-c3ccc[nH]3)oc2c1 ?
A. I

Q. Using the reported Ki, which band applies to O=C(c1ccc2nc(-c3ccc(-c4ccccc4)cc3)oc2c1)N1CCOCC1 ?
A. II

Q. Using the reported Ki, which band applies to CN(C)C(=O)c1ccc2nc(-c3cccc4ccccc34)oc2c1 ?
A. III

Q. Using the reported Ki, which band applies to CCN(CC)C(=O)c1ccc2nc(-c3ccncc3)oc2c1 ?
A. II
